MEASUREMENT_DESCRIPTION: chemical genetic growth profiling, strain panel (AID 1159580);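 further: tested at 20 µM; growth read once vehicle control cultures reached saturation at 30 °C; 1 = growth at the plate median or of vehicle wells; lower values mean less growth of the strain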
MEASUREMENT_CONTEXT: S. cerevisiae deletion strains, growth OD, locus YML094W, strain GIM5, hits give low values
Screen size: about 5,500 compounds; about 2,000 (36%) were called active. Not shown: some 18% with an inconclusive outcome. The list shows a part of the results.
MEASUREMENT_KIND: normalized growth

List reported normalized growth for each of these compounds:
1. Cc1cc(C)c(NC(=S)NCCCN2CCOCC2)c(C)c1
2. O=C(CSc1ccc(C(F)(F)F)cn1)N1CCc2c([nH]c3ccccc23)C1C(F)(F)F (stereo not drawn)
3. N#Cc1cnn(-c2ccccc2)c1-n1cccc1

1: 1 (inactive); 2: 0.997 (inactive); 3: 0.984 (inactive)

* * *

Can you tell me normalized growth for the items I'm about to list?
MEASUREMENT_DESCRIPTION: chemical genetic growth profiling, strain panel (AID 1159580);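 further: tested at 20 µM; growth read once vehicle control cultures reached saturation at 30 °C; 1 = growth at the plate median or of vehicle wells; lower values mean less growth of the strain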
MEASUREMENT_CONTEXT: S. cerevisiae deletion strains, growth OD, locus YOR144C, strain elg1, hits give low values
Hit rate of the full screen: of about 5,500 compounds, about 2,000 (36%) were called active. Roughly 18% stayed inconclusive and do not appear here. This is one part of the list.
Answers are plain numbers.

{"columns": ["COMPOUND", "RESULT"],
 "data": [
  ["S=C=NCc1ccccc1", 0.0548],
  ["COc1ccc(-c2coc3c(O)c(OC)ccc3c2=O)cc1", 0.894],
  ["CCCCCCCCCCCCC[N+](C)(C)Cc1ccccc1", 0.0629]
]}

List reported normalized growth for each of these compounds:
1. CC(C(=O)O)c1ccc2c(c1)[nH]c1ccc(Cl)cc12 (stereo not given)
2. CCCCOc1ccc(C(=O)CCN2CCCCC2)cc1
3. Oc1c(Cl)c(Cl)c(Cl)c(Cl)c1Cl
4. CCCCOc1ccc(OCCCN2CCOCC2)cc1

1: 0.98; 2: 0.994; 3: 0.756; 4: 0.994

* * *

MEASUREMENT_DESCRIPTION: chemical genetic growth profiling, strain panel (AID 1159580);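 further: tested at 20 µM; growth read once vehicle control cultures reached saturation at 30 °C; 1 = growth at the plate median or of vehicle wells; lower values mean less growth of the strain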
MEASUREMENT_CONTEXT: S. cerevisiae deletion strains, growth OD, locus YEL061C, strain CIN8
Among all 5,500 compounds or so, about 2,000 (36%) were called active. Not shown: some 18% with an inconclusive outcome. Rule as the data show it: active = normalized growth mostly below about 0.91 (no sharp cut-off); inconclusive = no clear call, values can overlap the other calls; inactive = mostly above about 0.92. Some of the results follow.
In this exercise, the only acceptable responses are t = active, f = inactive

The following compounds have reported results that may help.
{"columns": ["COMPOUND", "ANSWER_LABEL"],
 "data": [
  ["CCCCOc1ccc(CC(=O)NO)cc1", "f"],
  ["CCC(C(N)=O)c1ccccc1 (stereo unspecified)", "f"],
  ["CCCCOc1cc(C(=O)O)ccc1OC", "f"],
  ["CCCCOc1ccc(OCCCN2CCOCC2)cc1", "f"],
  ["CN1C/C(=C\\c2ccccc2Cl)C(=O)/C(=C/c2ccccc2Cl)C1", "t"]
]}

Dear all, I need the recorded test outcome for Cc1ccc(C(=O)C(C)CN2CCCCC2)cc1 (stereo unspecified) , thank you. f

* * *

MEASUREMENT_DESCRIPTION: chemical genetic growth profiling, strain panel (AID 1159580);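 further: tested at 20 µM; growth read once vehicle control cultures reached saturation at 30 °C; 1 = growth at the plate median or of vehicle wells; lower values mean less growth of the strain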
MEASUREMENT_CONTEXT: S. cerevisiae deletion strains, growth OD, locus YPL256C, strain CLN2
Hit rate of the full screen: of about 5,500 compounds, about 2,000 (36%) were called active. About 18% were inconclusive and are not listed. Rule as the data show it: active = normalized growth mostly below about 0.91 (no sharp cut-off); inconclusive = no clear call, values can overlap the other calls; inactive = mostly above about 0.92. The list shows a part of the results.
In this exercise, the only acceptable responses are True for active, False for inactive

The following molecules have reported results that may help.
{"columns": ["MOLECULE", "ANSWER_LABEL"],
 "data": [
  ["OCCN(CCO)c1nc(N2CCCCC2)c2nc(N(CCO)CCO)nc(N3CCCCC3)c2n1", "False"],
  ["COc1ccc(C[C@H]2NC[C@H](O)[C@H]2OC(C)=O)cc1", "False"],
  ["C1CCc2nnnn2CC1", "False"],
  ["N#Cc1c(Cl)c(Cl)c(Cl)c(C#N)c1Cl", "True"]
]}

Dear all, I need the recorded test outcome for CO[C@H]1C[C@H](O[C@H]2[C@H](C)[C@@H](OC3O[C@H](C)C[C@H](N(C)C)[C@H]3O)[C@@H](C)C[C@]3(CO3)C(=O)[C@H](C)[C@@H](O)[C@@H](C)[C@@H](C)OC(=O)[C@@H]2C)O[C@@H](C)[C@@H]1O (some centres not stated) , thank you. False

Dear all, I need the recorded test outcome for Cn1cc[nH]c1=S , thank you. False

Dear all, I need the recorded test outcome for N=c1nc(N2CCCCC2)cc(N)n1O , thank you. False
